melting point: recorded values

Field: example entries. Status: answers known.
CCC(O)c1ccc(Cl)c2nc3n(c12)CCCN3c1c(Br)cc(OC)cc1Br (stereo unspecified) : 138 to 140 °C
CC(C)n1c(-c2ccccc2)cc(-c2ccc(F)cc2)c1C=O : 118 to 122 °C
CN1C(=O)C(c2cccc(Br)c2)(c2c[nH]c(C=O)c2)N=C1N (stereo unspecified) : 142 to 151 °C
S=C(Nc1ccccc1)N1CCc2[nH]cnc2C1 : 205 °C
COC(=O)c1cccc2c(SC(F)(F)F)c(OC)ccc12 : 93 to 94 °C

Supply melting point value. Item: CCOC(=O)C1=C(O)C(C)(CC)CNC1=O (stereo unspecified)
196 to 197 °C

Supply melting point value. Item: "O=C(Nc1cccnc1NCc1ccc(Cl)cc1)c1ccccc1[N+](=O)[O-]"
145 to 147 °C

###

melting point: recorded values

Field: example entries. Status: answers known.
Cc1cc(C2(C(F)(F)F)CC(C#N)=C(c3ccccc3)O2)ccc1NC(=O)OC(C)(C)C (stereo unspecified) : 46 to 49 °C
Cc1ccc(-c2nnnn2C)c(S(N)(=O)=O)c1 : 161 to 171 °C
O=c1ccc2c(-c3cccs3)nccc2[nH]1 : 238 to 240 °C

Supply melting point value. Item: "CCc1nc2c(nc1O)CCCC2"
152 to 153 °C

Supply melting point value. Item: CCOCCn1cc2c(C3C(=O)Nc4ccc(Br)cc43)nc(NCCN(C)C)nc2n1 (stereo unspecified)
247 to 251 °C

Supply melting point value. Item: "Cc1cc(SCc2ccc(-c3ccc(C(F)(F)F)cc3)cc2)c(Cl)cc1OCC(=O)O"
161 to 162 °C

Supply melting point value. Item: "CC(C)(C)c1cc(CCc2ccccc2NC(=O)N2CCC(N3CCCCC3)CC2)cc(C(C)(C)C)c1O"
64 to 67 °C

Supply melting point value. Item: O=C(OCC(O)CO)C(=O)c1ccc(OCCOc2ccc3ccccc3c2)cc1 (stereo unspecified)
124 to 125 °C

Supply melting point value. Item: "Cc1cc(Cl)c(Nc2ccc(C)cc2CC(=O)O)c(Cl)c1"
179 to 182 °C

###

observed.property: melting point

Field: example entries. Status: answers known.
COCCNC(=O)Nc1nc2ccc(Sc3nnc4ccccn34)cc2s1 : 252 to 257 °C
O=C(O)CCC(=O)c1ccc(O)c(Cl)c1 : 155 to 160 °C
COc1cc(Nc2c(C#N)cnc3c2sc2ccc([N+](=O)[O-])cc23)c(C)cc1Cl : > 305 °C

Supply melting point value. Item: "CCCC(=O)N1CCc2nnc(NN=C(C)C)cc2C1"
152 to 154 °C

Supply melting point value. Item: "CCn1c(C)c(I)c(=O)n(CC)c1=O"
159 to 162 °C

Supply melting point value. Item: "CC(C)(C)OC(=O)N1CCN(S(=O)(=O)c2ccc(S(=O)(=O)c3ccc4cc(Br)ccc4c3)cc2)CC1"
213 to 215 °C

###

melting point: recorded values

CCOC(=O)C1=C(N)NC(c2ccccc2)=C(C(=O)O)C1c1ccccc1 (stereo unspecified) : 183 °C

Supply melting point value. Item: CCCCCCCCCCCCCCCCC1CC(Cn2cncn2)(c2ccc(Cl)cc2)N(C)O1 (stereo unspecified)
100 to 102 °C

###

melting point: recorded values

Field: example entries. Status: answers known.
OCC1=Cc2cc(Cl)ccc2Sc2sccc21 : 117 to 120 °C
C[C@@H](CS(=O)C(F)(F)C(F)F)[C@](O)(Cn1cncn1)c1ccc(Cl)cc1Cl (stereo partly specified) : 153 to 155 °C

Supply melting point value. Item: "CCc1cc(C(=O)OC)n(C)n1"
162 to 165 °C

Supply melting point value. Item: "Cn1nc2ccc(NCCCN3CCC(OC(c4ccccc4)c4ccccc4)CC3)nn2c1=O"
171 to 172 °C

Supply melting point value. Item: "COC(=O)c1cccnc1Oc1ccc(F)cc1"
97 to 99 °C

Supply melting point value. Item: "O=c1nc(-c2ccc(Br)cc2)c2c(=O)nc(-c3ccc(Br)cc3)c1=2"
> 400 °C

###

melting point: recorded values

Field: example entries. Status: answers known.
CC(=O)Nc1c(F)ccc2nc(C)ccc12 : 232 to 235 °C
Nc1nc(NCCc2ccccc2OCc2ccccc2)nc2nc(-c3ccco3)nn12 : 151 to 153 °C
COc1cccc(Nc2ccnc(Nc3cc(C)c(OC)c(OC)c3)n2)c1 : 66 to 68 °C

Next compound, please.
Supply melting point value. Item: "O=C1Cc2cccc(Oc3ccccc3)c2N1"
135 to 146 °C

###

melting point: recorded values

Field: example entries. Status: answers known.
NC(=O)N1CCc2cc(S(N)(=O)=O)sc2C1 : 205 to 208 °C
COc1cc(Nc2nccc(-c3cccc4ccccc34)n2)cc(OC)c1OC : 130 to 133 °C
CC1c2cc(C(C)(C)C)cc(C(C)(C)C)c2O[Si](C)(C)Oc2c1cc(C(C)(C)C)cc2C(C)(C)C : 171 to 177 °C

Supply melting point value. Item: "CC(C)(C)OC(=O)c1ncn2c1[C@@H]1CCCN1C(=O)c1c(Cl)cccc1-2"
216 to 217 °C

Supply melting point value. Item: "Cc1ccc(-c2cccc(/C=C/C(=O)Nc3ccc(CN4CCCCC4)cc3)c2)cc1"
154 to 156 °C

###

melting point: recorded values

Field: example entries. Status: answers known.
O=c1c2cc(O)cc(O)c2cc2n1CCCC2 : 214 to 215 °C
NC(=O)c1c(C(F)(F)F)nn(-c2c(Cl)cc(C(F)(F)F)cc2Cl)c1N : 169 to 171 °C

Supply melting point value. Item: "CC(=O)NCC=C1CCc2c(Cl)cc3nn(C)cc3c21"
177 to 178 °C

Supply melting point value. Item: "CCCC(CCC)C(=O)O[C@H]1C[C@H](O)C=C2C=C[C@H](C)[C@H](CC[C@@H]3C[C@@H](O)CC(=O)O3)[C@H]21"
165 to 166 °C

Supply melting point value. Item: "O=C1Cc2cccc(S(=O)(=O)c3ccccc3)c2N1"
217 to 220 °C

Supply melting point value. Item: "N#Cc1ccc2oc(CCCc3cc4cc(C#N)ccc4o3)cc2c1"
153 to 154 °C

Supply melting point value. Item: "CC(=O)CCCc1ccc(S(N)(=O)=O)s1"
54 to 57 °C

Supply melting point value. Item: CC(=O)c1cc(CC2CO2)c(OCCCCC#N)cc1O (configuration not stated)
86 to 87 °C

Supply melting point value. Item: CCc1cc2c(s1)-n1c(C)nnc1C(CCCCC(=O)Nc1ccccc1)N=C2c1ccc(Cl)cc1 (configuration not stated)
238 to 240 °C

Supply melting point value. Item: "O=C(CC(=O)C(F)F)c1ccc(Cl)cc1"
65 to 66.5 °C

Supply melting point value. Item: O=C(O)Cc1ccc(N(C(=O)C(COC2CCCCO2)NS(=O)(=O)c2ccc3ccccc3c2)c2ccc(CC(=O)O)cc2)cc1 (racemic)
130 to 140 °C

###

melting point: recorded values

Field: example entries. Status: answers known.
Cc1ccc(-c2[nH]c(-c3ccc([N+](=O)[O-])cc3)nc2C(=O)Nc2nccs2)cc1 : 256 to 258 °C
OC(Cc1ccccc1)Cc1ccccc1 : 107 to 109 °C
O=C(O)CCCc1ccc(N2CCOCC2)cc1 : 167 to 168 °C
O=S(=O)(c1cc(Br)[nH]c1-c1ccc(Cl)cc1)C(F)(F)F : 73 to 76 °C
NS(=O)(=O)c1cccc(-c2cn(-c3cc(C(F)(F)F)cc(-c4ccc(C(F)(F)F)cc4)n3)cn2)c1 : > 266 °C

Supply melting point value. Item: CCCCCCCCC(=O)Oc1cc2c(s1)CCN(C(C(=O)C1CC1)c1ccccc1F)C2 (stereo not given)
45 to 48 °C

Supply melting point value. Item: Cc1c(-c2cn(C)c(=O)c(Nc3ccc(C4C(=O)N(C)CCN4C(=O)OC(C)(C)C)cc3)n2)cccc1N1Cc2cc(C(C)(C)C)sc2C1=O (stereo not given)
120 to 123 °C

Supply melting point value. Item: "COc1nc2sccc2c2nc(S(=O)(=O)Nc3c(Cl)cccc3Cl)nn12"
224 to 226 °C

Supply melting point value. Item: CC(CC(=O)O)C(=O)c1ccc(-n2ccnc2)cc1 (stereo not given)
181 to 182 °C

Supply melting point value. Item: "O=C(OC1CCCCC1)c1ncn2c1[C@@H]1CCCN1C(=O)c1c-2cccc1C(F)(F)F"
193 to 194 °C

Supply melting point value. Item: "COC(=O)COc1ccc(SCc2cc(-c3ccc(Cl)cc3)on2)c2c1CCCO2"
131 to 133 °C

###

observed.property: melting point

Field: example entries. Status: answers known.
CC(C)=CCN(CC=C(C)C)Cc1noc(-c2ncn3c2[C@@H]2CCN2C(=O)c2ccccc2-3)n1 : 119 to 122 °C
CCOC(=O)CNc1ncccc1NC(=O)c1ccc(C)s1 : 112 to 115 °C

Supply melting point value. Item: "COc1ccc(C(=O)Nc2ccc(C)cc2)cc1N"
190 to 194 °C

Supply melting point value. Item: "O=c1ssc(N2CCc3ccccc3CC2)c1Cl"
141 °C

Supply melting point value. Item: "COc1cc([N+](=O)[O-])c2nc(OCc3ccc(Cl)cc3)ccc2c1"
130 to 134 °C
